Value source: patent US20250313612A1

molecular target: RSV F protein of recombinant mKate-RSV, subtype A (strain A2) (Respiratory syncytial virus subtype A …, UniProt P03420 26-574); assay: cell-based or functional assay
Listing of recorded Neut IC50 subtype A by entry.
# unit: µg/mL | format: bare number

| Binder | Neut IC50 subtype A (µg/mL) |
| --- | --- |
| ADI-14519 (antibody, V domains shown) VH: EVQLVESGAEMKQPGASVKVSCEGFGNTLSERSIHWVRQAPGKGPEWMGDYDHEDKEAIYAPKFQGRLTISADMSTDIASLELNSLTSEDTAVYYCATVIAVGAYDIWGQGTLVTVSS VL: EIVLTQSPSSLYASIGDRVTITCRTGQSISRYLNWYQQKPGKAPKLLIYAASTLQSGVPSRFSGSGAGTDFTLTIRGLLPEDFATYFCQQSYIIPYTFGQGTKVEIK | 12.2 |
| ADI-14483 (antibody, V domains shown, full-length IgG (yeast-expressed); also called Antibody Number 44; Ab# 44) VH: QVQLVQSGGRLVKPGGSLRLSCGMSGFGFSSYRMNWVRQAPGKGLEWISSISASSSYTDYANSVKGRFTISRDGANLFLQMNSLRVEDTAVYYCARDWGGHSIFGAVQDLWGQGTLVTVSS VL: QSVLTQPPSVSGAPGQRVTISCSGSSSNIGAGYDVHWYQQLPGTAPKLLIYGNTNRPSGVPDRFSGSKSGTSASLAITGLQAEDEADYYCQSYDRSLSQVFGAGTKVTVL | 0.031 |

Then this binder:
Query block: Value lookup for Neut IC50 subtype A; key = ADI-14518 (antibody, V domains shown) VH: QVQLVQSGPEVKKPGASVRVSCKTSGFTLSHYGVSWLRQAPGHGLEWLGWISAYNYNTQFGHRMEGRLTMTTDTSTAYMDLTSLTSDDTAIYYCARDSPSDTAAALLDFWGQGTLVTVSS VL: DIVLTQSPLSLPVTLGQPASISCRSSQSLVYSDGNTYLSWFQQRPGQAPRRLIYKISNRDSGVPDRFSGSGSGTDFTLKISRVEAEDVGIYYCMQATHWPRLSFGGGTKVEIK
Result block: 0.019
